For each entry below, report its inhibition value.
experiment: M. tuberculosis growth inhibition, HTS (AID 449762);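 note: bacterial growth assessed after seven days of incubation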; details: M. tuberculosis H37Rv growth inhibition, 7H9 media; at 25 µM; active compounds read high
Screen size: about 330,000 compounds; about 1,900 (0.58%) were called active. Not shown: some 4% with an inconclusive outcome. The list is a sample of the results. Potency and affinity values are given separately.
API: value field is a number in %; no unit string.

Data request, read-out inhibition, for COc1ccc(-c2csc3ncnc(N4CCN(c5ccccc5Cl)CC4)c23)cc1 50.3

Data request, read-out inhibition, for CCOCCCn1c(=N)c(C(=O)NCc2ccc3c(c2)OCO3)cc2c(=O)n3cccc(C)c3nc21 68.2

Data request, read-out inhibition, for Cc1cccc(C(=O)NC2CC(C)(C)NC(C)(C)C2)c1 -6.34

Data request, read-out inhibition, for CC1CC(C)CN(C(=O)CN2C(=O)NC3(CCCCCC3)C2=O)C1 (stereo not given) 6.02

Data request, read-out inhibition, for O=C(Nc1ccc(Cl)cc1C(F)(F)F)C(Sc1cccc[n+]1[O-])c1ccccc1 (stereo not given) 16.4

Data request, read-out inhibition, for CCCn1c(=N)c(C(=O)NCC2CCCO2)cc2c(=O)n3cccc(C)c3nc21 (stereo not given) -2.2

Data request, read-out inhibition, for Cn1c(=O)c(C(=O)NNC(=O)c2ccccc2Br)c(O)c2ccccc21 45.1

Data request, read-out inhibition, for COC(=O)c1ccc(-c2n[nH]c(=O)c3ccccc23)cc1 -2.05

Data request, read-out inhibition, for Oc1ccc(-c2nc3ccc4ccccc4c3c3c2CCC3)cc1O -2.27

Data request, read-out inhibition, for CCC(=O)N1CCc2cc(S(=O)(=O)N3CCCC3)ccc21 -9.42
